As shown below, each of these compounds has a reported Accuracy (RE, %) 25°C for 6 h value.
format: physicochemical, mice; details: stability in mice plasma/blood QC sample, spiked concentration 62.5
quantity-name: Accuracy (RE, %) 25°C for 6 h

                                   compound  reported_value
0         COc1cc(CCC(C)=O)ccc1O [zingerone]            −8.6
1  COc1c(O)cc(O)c2c(=O)cc(-c3ccccc3)oc12 [Wogonin, wogonin]             9.5
2  COc1ccc(-c2coc3cc(O)ccc3c2=O)cc1 [Formononetin, formononetin]            11.8
